Just for reference, ChEMBL document CHEMBL1667796 is where these values come from.

# Tested on: Escherichia coli
# procedure.text: Inhibition of Escherichia coli DXR assessed as conversion of NADPH to NADP at 500 uM by spectrophotometry
inhibition listing for selected compounds.
reported.metric: inhibition

smiles: CCOP(=O)(CC(=O)NCc1ccco1)OCC
reported.metric: inhibition
result: 67.7%
--
smiles: CCOP(=O)(CC(=O)Nc1nccs1)OCC
reported.metric: inhibition
result: 28.9%
--
smiles: O=C(CP(=O)(O)O)Nc1ccon1
reported.metric: inhibition
result: 12.2%
--
smiles: O=C(CP(=O)(O)O)NCc1ccco1
reported.metric: inhibition
result: 30%
--
smiles: CCOP(=O)(CC(=O)Nc1ccccn1)OCC
reported.metric: inhibition
result: 58.5%
--
smiles: CC(=O)c1sc(NC(=O)CP(=O)(O)O)nc1C
reported.metric: inhibition
result: 16.6%
--
smiles: O=C(CP(=O)(O)O)Nc1nccs1
reported.metric: inhibition
result: 7.4%
--
smiles: CCOP(=O)(CC(=O)Nc1ccon1)OCC
reported.metric: inhibition
result: 11.7%
